Data credit: patent US20230138851A1

Biological target: DYRK3 (Homo sapiens, UniProt O43781)
Construct: purchased Carna Biosciences, Inc. 04-133
Sequence (O43781 1-588): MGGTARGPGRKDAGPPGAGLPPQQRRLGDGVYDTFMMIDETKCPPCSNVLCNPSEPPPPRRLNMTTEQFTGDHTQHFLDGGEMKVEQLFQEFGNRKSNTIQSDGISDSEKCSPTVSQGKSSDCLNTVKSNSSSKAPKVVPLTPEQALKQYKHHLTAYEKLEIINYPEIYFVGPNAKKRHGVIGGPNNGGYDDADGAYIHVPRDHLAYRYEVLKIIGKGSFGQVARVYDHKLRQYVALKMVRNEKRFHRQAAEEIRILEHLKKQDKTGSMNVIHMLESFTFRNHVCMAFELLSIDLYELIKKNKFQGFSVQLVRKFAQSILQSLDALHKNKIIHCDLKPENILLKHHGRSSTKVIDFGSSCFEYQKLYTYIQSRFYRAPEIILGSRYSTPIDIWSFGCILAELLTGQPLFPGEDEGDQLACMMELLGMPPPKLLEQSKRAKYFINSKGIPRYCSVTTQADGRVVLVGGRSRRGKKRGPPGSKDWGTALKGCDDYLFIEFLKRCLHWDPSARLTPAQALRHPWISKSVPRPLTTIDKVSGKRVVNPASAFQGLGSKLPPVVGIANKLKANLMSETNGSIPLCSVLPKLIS
Assay: Inhibition test on activity of DYRK family, mobility shift assay (MSA), DYRK3
Type: biochemical
Settings: ATP 20 μM, FITC-labeled DYRKtide peptide substrate, room temperature 1 hour; read-out: Inhibitory Activity 3 (IC50 against DYRK3)
pIC50: −log10 of the molar value.
Reported pIC50 by item:

molecule="CC#CC1CNC(=O)N1c1nc2c3c(ccc2s1)OCCN3C(C)=O (racemic)" recorded_result="≤ 6.00"
molecule=CC#C[C@@H]1[C@H](C)NC(=O)N1c1nc2c3c(ccc2s1)OCO3 recorded_result="6.00 to 7.00"
molecule="CC#CC1CNC(=O)N1c1nc2c(ccc3nccn32)s1 (racemic)" recorded_result="6.00 to 7.00"

For the next question, use this molecule.
Consider the molecule shown here: CC#CC1CNC(=O)N1c1nc2c(ccc3ncccc32)s1 (single isomer, unassigned) What is its recorded pIC50?
6.00 to 7.00
